Tested on: human cervical (Hela) carcinoma cell line
Assay: MTT cytotoxicity, Hela
Type: cell-based
Condition info: 24 h, read-out: IC50 Hela
Property name: IC50 (µM)
All answers are understood in µM, so give the number only.

Illustrative cases are given below, each with its answer.
[[record]]
test_smiles = "O=C(NCCSc1nc2ccccc2c(=O)n1-c1ccccc1)Nc1ccc(Br)cc1"
experimental_system = "human cervical (Hela) carcinoma cell line"
property_name = "IC50"
unit = "µM"
experimental_result = 67.7

[[record]]
test_smiles = "O=C(NCCSc1nc2ccccc2c(=O)n1-c1ccccc1)NCc1ccccc1"
experimental_system = "human cervical (Hela) carcinoma cell line"
property_name = "IC50"
unit = "µM"
experimental_result = 75.3

[[record]]
test_smiles = "O=C(NCCSc1nc2cc(Cl)ccc2c(=O)n1-c1ccccc1)NCc1ccc(Cl)cc1"
experimental_system = "human cervical (Hela) carcinoma cell line"
property_name = "IC50"
unit = "µM"
experimental_result = 14.3

[[record]]
test_smiles = "O=C(NCCSc1nc2ccccc2c(=O)n1-c1ccccc1)NCCc1ccccc1"
experimental_system = "human cervical (Hela) carcinoma cell line"
property_name = "IC50"
unit = "µM"
experimental_result = 11.6

[[record]]
test_smiles = "COc1ccc(CNC(=O)NCCSc2nc3cc(Cl)ccc3c(=O)n2-c2ccccc2)cc1"
experimental_system = "human cervical (Hela) carcinoma cell line"
property_name = "IC50"
unit = "µM"
experimental_result = 90.2

[[record]]
test_smiles = "O=C(NCCSc1nc2cc(Cl)ccc2c(=O)n1-c1ccccc1)NCCc1ccccc1"
experimental_system = "human cervical (Hela) carcinoma cell line"
property_name = "IC50"
unit = "µM"
experimental_result = 45.2


Okay, now this molecule:
Fill blank: measured IC50 of the molecule O=C(NCCSc1nc2cc(Cl)ccc2c(=O)n1-c1ccccc1)NCCc1ccc(Cl)cc1 is ____. 22.4
